tested on: human GABA α1β3β2 receptors; assay: GABAa, 3H-muscimol binding assay; conditions: activity at 10 μM as percentage of activity of control compound P18 at 10 μM (increase of 3H-muscimol binding)
One threshold, 30%, splits the recorded % GABA Example values: lower ones are Yes, equal or higher ones are No.

Study these solved cases before continuing.
- compound: "Cc1n[nH]cc1-c1ccc(-c2nc3oc(C(=O)C(C)(C)C)c(C(N)=O)c3cc2-c2ccc(Cl)cc2)c(Cl)c1 [Example 3]"
  experimentalSystem: "human GABA α1β3β2 receptors"
  class: "Yes"
- compound: "Cc1c(C(=O)C(C)(C)O)oc2nc(-c3ccc(-c4cc[nH]n4)cc3Cl)c(-c3ccc(Cl)cc3)cc12 [Example 23]"
  experimentalSystem: "human GABA α1β3β2 receptors"
  class: "Yes"
- compound: "Cc1c(C(=O)C(C)C)oc2nc(-c3ccc(-c4cc[nH]n4)cc3Cl)c(-c3ccc(Cl)cc3)cc12 [Example 25]"
  experimentalSystem: "human GABA α1β3β2 receptors"
  class: "No"

Identify whether the compound CC(C)(O)C(=O)c1oc2nc(-c3ccc(-c4cc[nH]n4)cc3Cl)c(-c3ccc(Cl)cc3)cc2c1N [Example 21] records % GABA Example below 30%. Yes

Do the same for CC(C)(C)C(=O)c1oc2nc(-c3ccc(-c4cn[nH]c4)cc3Cl)c(-c3ccc(Cl)cc3)cc2c1NC(=O)C(C)(C)O [Example 16] please Yes

Try this compound too: CC(=O)Nc1c(C(=O)C(C)(C)O)oc2nc(-c3ccc(-c4c[nH]nc4C)cc3Cl)c(-c3ccc(Cl)cc3)cc12 [Example 41] No

How about CCC(=O)c1oc2nc(-c3ccc(-c4cn[nH]c4)cc3Cl)c(-c3ccc(Cl)cc3)cc2c1NC(=O)[C@H](C)O [Example 15] ? Yes

The origin of these recorded values is patent US20080269279A1.
